# Target desc: Receptor-histidine kinase AgrC (Staphylococcus aureus)
# Sequence (whole entry): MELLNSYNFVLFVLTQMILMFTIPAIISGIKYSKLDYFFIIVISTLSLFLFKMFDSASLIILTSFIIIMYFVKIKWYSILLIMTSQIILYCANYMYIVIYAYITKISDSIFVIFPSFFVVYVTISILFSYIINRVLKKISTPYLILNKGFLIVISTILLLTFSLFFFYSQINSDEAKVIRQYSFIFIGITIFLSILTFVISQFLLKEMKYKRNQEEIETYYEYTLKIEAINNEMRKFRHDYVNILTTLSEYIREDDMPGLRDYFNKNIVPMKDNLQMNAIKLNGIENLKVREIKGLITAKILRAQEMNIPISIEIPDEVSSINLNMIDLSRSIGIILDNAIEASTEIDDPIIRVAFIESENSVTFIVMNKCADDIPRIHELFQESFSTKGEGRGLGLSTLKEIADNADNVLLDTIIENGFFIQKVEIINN
# Protocol summary: Inhibition of AIP-stimulated quorum sensing system AgrC activation in Staphylococcus aureus RN10829 harboring P3:blaZ fusion assessed as reduction in beta-lactamse activity at 5 ug/ml preincubated with organism followed by AIP addition measured after 45 mins by nitrocefin hydrolysis assay
The source made the active and inactive calls. The rule behind the calls is not given here. Bridge positions count the residues as written; N and C are the ends. Square brackets hold non-standard residues; d marks the D form. Peptide text beside a SMILES is read from it. * marks the point of attachment. Heptanoyl = CCCCCCC(=O)*; Orn = NCCC[C@H](N)C(=O)O; Dap = NC[C@H](N)C(=O)O
Readout label: inhibition

Example results:
CCCCCC(=O)N[C@@H]1CNC(=O)[C@@H](CC(C)C)NC(=O)[C@@H](C)NC(=O)[C@@H](CC(C)C)NC(=O)[C@@H](Cc2ccccc2)NC1=O; Active
CCCCCCC(=O)N[C@@H]1CNC(=O)[C@@H](Cc2ccccc2)NC(=O)[C@@H](C)NC(=O)[C@@H](CC(C)C)NC(=O)[C@@H](CC(C)C)NC1=O; inactive
CCCCCCC(=O)N[C@H]1CCCNC(=O)[C@H](CC(C)C)NC(=O)[C@H](C)NC(=O)[C@H](CC(C)C)NC(=O)[C@H](Cc2ccccc2)NC1=O (Heptanoyl-[Orn]FLAL; lactam 1-C); inactive
CC(=O)NCC(=O)NCC(=O)NCC(=O)N[C@H]1CNC(=O)[C@H](CC(C)C)NC(=O)[C@H](C)NC(=O)[C@H](CC(C)C)NC(=O)[C@H](Cc2ccccc2)NC1=O (Ac-GGG[Dap]FLAL; lactam 4-C); inactive
CCCCCCC(=O)N[C@@H]1CNC(=O)[C@@H](CC(C)C)NC(=O)[C@@H](C)NC(=O)[C@@H](CC(C)C)NC(=O)[C@@H](C)NC1=O; Active

Moving on to another compound below.
-- ask // returns reported inhibition for input "CCCCCCC(=O)N[C@@H]1CNC(=O)[C@@H](CC(C)C)NC(=O)CNC(=O)[C@@H](CC(C)C)NC(=O)[C@@H](Cc2ccccc2)NC1=O"
-- reply inactive

Reference source for all entries: ChEMBL document CHEMBL4152251
